- Study Target: GSK3α (GST-full length GSK3α) (Homo sapiens (Human))
- Sequence (P49840 whole entry): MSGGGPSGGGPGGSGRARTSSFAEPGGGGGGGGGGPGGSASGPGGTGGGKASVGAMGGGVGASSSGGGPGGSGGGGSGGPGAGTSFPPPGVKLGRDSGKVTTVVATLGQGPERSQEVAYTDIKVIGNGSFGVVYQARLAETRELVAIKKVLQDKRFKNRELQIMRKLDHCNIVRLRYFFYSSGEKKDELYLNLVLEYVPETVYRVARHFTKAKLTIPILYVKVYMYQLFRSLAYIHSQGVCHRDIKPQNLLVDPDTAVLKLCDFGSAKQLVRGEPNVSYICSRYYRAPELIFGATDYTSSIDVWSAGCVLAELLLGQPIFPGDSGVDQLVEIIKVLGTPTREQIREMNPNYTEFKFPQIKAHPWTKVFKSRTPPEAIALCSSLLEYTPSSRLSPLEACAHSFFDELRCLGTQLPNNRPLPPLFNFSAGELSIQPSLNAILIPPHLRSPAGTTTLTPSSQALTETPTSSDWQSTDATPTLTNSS
- Assay Explanation: GSK3α TR-FRET kinase assay
- Format: biochemical
- Reported Conditions: 1 nM GSK3α, 4 μM ATP, 30 minute preincubation; read-out: GSK3-A TR-FRET BIOCHEMICAL (TR-FRET); IC50
pIC50: −log10 of the molar value.
Outcome Measure: pIC50

Provide value of pIC50 for this record tested with GSK3α (GST-full length GSK3α) (Homo sapiens (Human)): CC1(C)CC(=O)C2=C(C1)Nc1n[nH]cc1C21COC2(CN(C(=O)C3CCCC3)C2)C1 (centres unmarked) [Compound 917232]
≥ 7.00

Provide value of pIC50 for this record tested with GSK3α (GST-full length GSK3α) (Homo sapiens (Human)): CC1(C)CC(=O)C2=C(C1)Nc1n[nH]cc1C21COC2(CN(S(C)(=O)=O)C2)C1 (centres unmarked)
≥ 7.00

Provide value of pIC50 for this record tested with GSK3α (GST-full length GSK3α) (Homo sapiens (Human)): `CC1(C)CC(=O)C2=C(C1)Nc1n[nH]cc1C21CCN(S(=O)(=O)CC2CC2)CC1`
≥ 7.00

Provide value of pIC50 for this record tested with GSK3α (GST-full length GSK3α) (Homo sapiens (Human)): CC1(C)CC(=O)C2=C(C1)Nc1n[nH]cc1C21COC2(CN(C(=O)c3ccccc3)C2)C1 (centres unmarked) [Compound 943956]
6.00 to 7.00

Provide value of pIC50 for this record tested with GSK3α (GST-full length GSK3α) (Homo sapiens (Human)): CC1(C)CC(=O)C2=C(C1)Nc1n[nH]cc1C21COC2(CN(C(=O)C3(F)CCCC3)C2)C1 (centres unmarked)
≥ 7.00

Provide value of pIC50 for this record tested with GSK3α (GST-full length GSK3α) (Homo sapiens (Human)): CCC1(c2cccc(-c3ccncc3C)c2)C2=C(CC(C)(C)NC2=O)Nc2n[nH]cc21 (centres unmarked)
≥ 7.00

Provide value of pIC50 for this record tested with GSK3α (GST-full length GSK3α) (Homo sapiens (Human)): CC1(C)CC(=O)C2=C(C1)Nc1n[nH]cc1C21COC2(CN(C(=O)C3(F)CCC3)C2)C1 (centres unmarked) [Compound 947279]
≥ 7.00

Provide value of pIC50 for this record tested with GSK3α (GST-full length GSK3α) (Homo sapiens (Human)): `CC1(C)CC(=O)C2=C(C1)Nc1n[nH]cc1[C@]21COC2(CN(C(=O)C(F)(F)F)C2)C1`
≥ 7.00

Provide value of pIC50 for this record tested with GSK3α (GST-full length GSK3α) (Homo sapiens (Human)): `CC[C@]1(c2cccc(C(F)(F)F)c2)C2=C(CCN(Cc3ccccc3)C2=O)Nc2n[nH]cc21`
< 5.30

Provide value of pIC50 for this record tested with GSK3α (GST-full length GSK3α) (Homo sapiens (Human)): `CC[C@]1(c2cccc(C(F)(F)F)c2)C2=C(Nc3n[nH]cc31)[C@H](C)NC2=O`
< 5.30

Provide value of pIC50 for this record tested with GSK3α (GST-full length GSK3α) (Homo sapiens (Human)): CCC1(c2cccc(C(F)(F)F)c2)C2=C(CC(c3ccccc3)NC2=O)Nc2n[nH]cc21 (centres unmarked) [Compound 917284]
6.00 to 7.00

Provide value of pIC50 for this record tested with GSK3α (GST-full length GSK3α) (Homo sapiens (Human)): CC1(C)CC(=O)C2=C(C1)Nc1n[nH]cc1C21CCC2(CCC(=O)N2C(=O)OC(C)(C)C)CC1 (centres unmarked)
5.30 to 6.00

Provide value of pIC50 for this record tested with GSK3α (GST-full length GSK3α) (Homo sapiens (Human)): CCC1(c2cccc(C(F)(F)F)c2)C2=C(CCN(Cc3ccccc3)C2=O)Nc2n[nH]cc21 (centres unmarked)
6.00 to 7.00

Provide value of pIC50 for this record tested with GSK3α (GST-full length GSK3α) (Homo sapiens (Human)): CC1CC(C(=O)N2CC3(C2)CC2(CO3)C3=C(CC(C)(C)CC3=O)Nc3n[nH]cc32)C1 (centres unmarked) [Compound 947733]
≥ 7.00

Provide value of pIC50 for this record tested with GSK3α (GST-full length GSK3α) (Homo sapiens (Human)): `CC[C@@]1(c2cccc(C(F)(F)F)c2)C2=C(CCN(CC(F)(F)F)C2=O)Nc2n[nH]cc21`
< 5.30

Provide value of pIC50 for this record tested with GSK3α (GST-full length GSK3α) (Homo sapiens (Human)): `CC1(C)CC(=O)C2=C(C1)Nc1n[nH]cc1[C@@]21COC2(CN(C(=O)c3ccccc3)C2)C1`
≥ 7.00

Provide value of pIC50 for this record tested with GSK3α (GST-full length GSK3α) (Homo sapiens (Human)): `CC[C@@]1(c2cccc(C(F)(F)F)c2)C2=C(CC(C)(C)NC2=O)Nc2n[nH]cc21`
< 5.30

Provide value of pIC50 for this record tested with GSK3α (GST-full length GSK3α) (Homo sapiens (Human)): `CC[C@]1(c2cccc(C(F)(F)F)c2)C2=C(CCNC2=O)Nc2n[nH]cc21`
< 5.30

Provide value of pIC50 for this record tested with GSK3α (GST-full length GSK3α) (Homo sapiens (Human)): `CC1(C)CC(=O)C2=C(C1)Nc1n[nH]cc1[C@]21CCN(S(=O)(=O)c2ccccc2F)C1`
≥ 7.00

Provide value of pIC50 for this record tested with GSK3α (GST-full length GSK3α) (Homo sapiens (Human)): `CC[C@@]1(c2cccc(C(F)(F)F)c2)C2=C(Nc3n[nH]cc31)[C@H](C)CN(C)C2=O`
≥ 7.00

Provide value of pIC50 for this record tested with GSK3α (GST-full length GSK3α) (Homo sapiens (Human)): CC1(C)CC(=O)C2=C(C1)Nc1n[nH]cc1C21COC2(CN(C(=O)C3CCC(F)(F)C3)C2)C1 (centres unmarked)
≥ 7.00

Provide value of pIC50 for this record tested with GSK3α (GST-full length GSK3α) (Homo sapiens (Human)): CC1(C)CC(=O)C2=C(C1)Nc1n[nH]cc1C21COC2(CN(C(=O)C3CCC(F)C3)C2)C1 (centres unmarked)
≥ 7.00

Provide value of pIC50 for this record tested with GSK3α (GST-full length GSK3α) (Homo sapiens (Human)): CCC1(c2cccc(-c3cnn(C)c3)c2)C2=C(CC(C)(C)NC2=O)Nc2n[nH]c(C)c21 (centres unmarked)
≥ 7.00

Provide value of pIC50 for this record tested with GSK3α (GST-full length GSK3α) (Homo sapiens (Human)): CCC1(c2cccc(-c3ccnc4c3CCCC4)c2)C2=C(CN(Cc3ccccc3)C2=O)Nc2n[nH]cc21 (centres unmarked)
≥ 7.00

Provide value of pIC50 for this record tested with GSK3α (GST-full length GSK3α) (Homo sapiens (Human)): `CC(=O)N1CC2(C1)C[C@@]1(CO2)C2=C(CC(C)(C)CC2=O)Nc2n[nH]cc21`
6.00 to 7.00

Provide value of pIC50 for this record tested with GSK3α (GST-full length GSK3α) (Homo sapiens (Human)): `CC[C@]1(c2cccc(C(F)(F)F)c2)C2=C(Nc3n[nH]cc31)[C@H](C)CN(C)C2=O`
< 5.30

Provide value of pIC50 for this record tested with GSK3α (GST-full length GSK3α) (Homo sapiens (Human)): `CC[C@]1(c2cccc(-c3cc(C)nn3C)c2)C2=C(CC(C)(C)NC2=O)Nc2n[nH]cc21`
< 5.30

Provide value of pIC50 for this record tested with GSK3α (GST-full length GSK3α) (Homo sapiens (Human)): `CC1(C)CC2=C(C(=O)N1)C1(CCN(S(=O)(=O)C3CCCC3)CC1)c1c[nH]nc1N2`
≥ 7.00

Provide value of pIC50 for this record tested with GSK3α (GST-full length GSK3α) (Homo sapiens (Human)): `Cn1ccc(S(=O)(=O)N2CCC3(CC2)C2=C(CC(C)(C)NC2=O)Nc2n[nH]cc23)n1`
≥ 7.00

----------
For each entry below, report its IC50 value.
- Study Target: UniProt:P49841
- Sequence (P49841 whole entry): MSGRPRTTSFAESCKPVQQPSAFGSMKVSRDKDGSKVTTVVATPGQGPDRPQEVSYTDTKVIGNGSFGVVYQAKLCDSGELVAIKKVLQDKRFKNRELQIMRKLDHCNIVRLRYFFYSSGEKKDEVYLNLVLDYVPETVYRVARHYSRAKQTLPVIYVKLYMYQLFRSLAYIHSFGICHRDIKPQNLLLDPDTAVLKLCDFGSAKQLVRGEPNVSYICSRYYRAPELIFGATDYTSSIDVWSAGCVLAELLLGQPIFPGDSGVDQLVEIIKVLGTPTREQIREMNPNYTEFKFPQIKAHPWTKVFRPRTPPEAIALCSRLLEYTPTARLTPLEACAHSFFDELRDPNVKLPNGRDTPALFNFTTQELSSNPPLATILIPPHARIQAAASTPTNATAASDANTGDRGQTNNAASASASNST
- Assay Explanation: GSK3b TR-FRET kinase assay
- Type: biochemical
- Reported Conditions: read-out: GSK3-B (TR-FRET 1 mM ATP); GMean; IC50; 1 mM ATP; geometric mean

For the molecule shown here, CCC1(c2cccc(-c3ccncc3F)c2)C2=C(CC(C)(C)CC2=O)Nc2n[nH]c(C)c21 (stereo not drawn) , give the reported IC50.
0.1 to 1 µM

For the molecule shown here, CCC1(c2cccc(-c3cc(C)ncc3F)c2)C2=C(CC(C)(C)CC2=O)Nc2n[nH]cc21 (stereo not drawn) , give the reported IC50.
1 to 5 µM

For the molecule shown here, `CC[C@@]1(c2cccc(C3CCC3)c2)C2=C(CC(C)(C)CC2=O)Nc2n[nH]cc21` , give the reported IC50.
1 to 5 µM

For the molecule shown here, `CC[C@]1(c2cccc(C3CC3)c2)C2=C(CC(C)(C)NC2=O)Nc2n[nH]cc21` , give the reported IC50.
> 5 µM

For the molecule shown here, CCC1(c2cccc(C(F)F)c2)C2=C(CC(C)(C)CC2=O)Nc2n[nH]c(C(F)(F)F)c21 (stereo not drawn) , give the reported IC50.
≤ 0.1 µM

For the molecule shown here, CCC1(c2cccc(-c3ccncc3F)c2)C2=C(CC(C)(C)CC2=O)Nc2n[nH]cc21 (stereo not drawn) , give the reported IC50.
0.1 to 1 µM

For the molecule shown here, `CC[C@@]1(c2cccc(N(C)c3ncccn3)c2)C2=C(CC(C)(C)NC2=O)Nc2n[nH]c(F)c21` , give the reported IC50.
1 to 5 µM

For the molecule shown here, `CC[C@]1(c2cccc(-c3ccncc3C(F)(F)F)c2)C2=C(CC(C)(C)CC2=O)Nc2n[nH]cc21` , give the reported IC50.
0.1 to 1 µM

For the molecule shown here, `CC[C@@]1(c2cccc(-c3ccnc(C)c3)c2)C2=C(CC(C)(C)NC2=O)Nc2n[nH]c(Cl)c21` , give the reported IC50.
1 to 5 µM

For the molecule shown here, CCCn1nccc1-c1cccc(C2(CC)C3=C(CC(C)(C)CC3=O)Nc3n[nH]cc32)c1 (stereo not drawn) , give the reported IC50.
0.1 to 1 µM

For the molecule shown here, Cc1ccc(C(=O)N2CC3(C2)CC2(CO3)C3=C(CC(C)(C)CC3=O)Nc3n[nH]cc32)cc1C (stereo not drawn) , give the reported IC50.
0.1 to 1 µM

For the molecule shown here, CCC1(c2cccc(-c3ccncc3OC)c2)C2=C(CC(C)(C)CC2=O)Nc2n[nH]cc21 (stereo not drawn) , give the reported IC50.
0.1 to 1 µM

For the molecule shown here, CCC1(c2cccc(-c3ccnc4c3CCCC4)c2)C2=C(CC(C)(C)CC2=O)Nc2n[nH]cc21 (stereo not drawn) , give the reported IC50.
0.1 to 1 µM

For the molecule shown here, `CC[C@]1(c2cccc(-c3cnc4n3CCCC4)c2)C2=C(CC(C)(C)CC2=O)Nc2n[nH]cc21` , give the reported IC50.
> 5 µM

For the molecule shown here, `CC[C@]1(c2cccc(-c3cnn4ccncc34)c2)C2=C(CC(C)(C)NC2=O)Nc2n[nH]cc21` , give the reported IC50.
> 5 µM
